Test system: Trichoderma viride
protocol: Antifungal activity against Trichoderma viride MTCC 1107 at 20 uM/ml after 48 hrs by paper disc diffusion method
Type: functional
study.conditions: MTCC 1107, 48 h, read-out: IZ
Measured zone of inhibition at 20 µM, listed per entry.
experimental.endpoint: zone of inhibition at 20 µM (mm)

• COc1cc(/C=C/C(=O)C2=C(/C=C/c3ccc(O)c(OC)c3)NC(=O)NC2c2ccc(C)cc2)ccc1O (centres undefined) = 12
• COc1cc(/C=C/C(=O)C2=C(/C=C/c3ccc(O)c(OC)c3)NC(=S)NC2c2ccc([N+](=O)[O-])cc2)ccc1O (centres undefined) = 17
• COc1cc(/C=C/C(=O)C2=C(/C=C/c3ccc(O)c(OC)c3)NC(=O)NC2c2ccc(O)c(OC)c2)ccc1O (centres undefined) = 15
• COc1cc(/C=C/C(=O)C2=C(/C=C/c3ccc(O)c(OC)c3)NC(=O)NC2c2ccc(Cl)cc2)ccc1O (centres undefined) = 15

* * *

Test system: Trichoderma viride
protocol: Antifungal activity against Trichoderma viride MTCC 1107 at 80 uM/ml after 48 hrs by paper disc diffusion method
Assay type: functional
study.conditions: MTCC 1107, 48 h, read-out: IZ
experimental.endpoint: zone of inhibition at 80 µM (mm)

- COc1cc(/C=C/C(=O)C2=C(/C=C/c3ccc(O)c(OC)c3)NC(=O)NC2c2ccc(O)c(OC)c2)ccc1O (stereo not drawn): 18
- COc1cc(/C=C/C(=O)C2=C(/C=C/c3ccc(O)c(OC)c3)NC(=O)NC2c2ccc([N+](=O)[O-])cc2)ccc1O (stereo not drawn): 21
- COc1cc(/C=C/C(=O)C2=C(/C=C/c3ccc(O)c(OC)c3)NC(=S)NC2c2ccc(O)c(OC)c2)ccc1O (stereo not drawn): 11
- COc1ccc(C2NC(=S)NC(/C=C/c3ccc(O)c(OC)c3)=C2C(=O)/C=C/c2ccc(O)c(OC)c2)cc1 (stereo not drawn): 19
- COc1cc(/C=C/C(=O)C2=C(/C=C/c3ccc(O)c(OC)c3)NC(=S)NC2c2ccc(O)cc2)ccc1O (stereo not drawn): 17
- COc1cc(/C=C/C(=O)C2=C(/C=C/c3ccc(O)c(OC)c3)NC(=O)NC2c2ccc(Cl)cc2)ccc1O (stereo not drawn): 17
- COc1cc(/C=C/C(=O)C2=C(/C=C/c3ccc(O)c(OC)c3)NC(=S)NC2c2ccc(Cl)cc2)ccc1O (stereo not drawn): 22
- COc1cc(/C=C/C(=O)C2=C(/C=C/c3ccc(O)c(OC)c3)NC(=O)NC2c2ccccc2)ccc1O (stereo not drawn): 11

* * *

Documented zone of inhibition at 160 µM across a set of molecules
Test system: Salmonella typhimurium
protocol: Antibacterial activity against Salmonella typhimurium ATCC 23564 at 160 uM/ml after 24 hrs by kirby-bauer method
Assay type: functional, Salmonella enterica subsp. enterica serovar Typhimurium
study.conditions: Salmonella enterica, ATCC 23564, 24 h; read-out: IZ
experimental.endpoint: zone of inhibition at 160 µM (mm)

- COc1cc(/C=C/C(=O)C2=C(/C=C/c3ccc(O)c(OC)c3)NC(=S)NC2c2ccc(Cl)cc2)ccc1O (stereo not drawn): 22
- COc1cc(/C=C/C(=O)C2=C(/C=C/c3ccc(O)c(OC)c3)NC(=S)NC2c2ccc(O)c(OC)c2)ccc1O (stereo not drawn): 14
- COc1cc(/C=C/C(=O)C2=C(/C=C/c3ccc(O)c(OC)c3)NC(=O)NC2c2ccc(O)c(OC)c2)ccc1O (stereo not drawn): 22
- COc1cc(/C=C/C(=O)C2=C(/C=C/c3ccc(O)c(OC)c3)NC(=O)NC2c2ccc(Cl)cc2)ccc1O (stereo not drawn): 11
- COc1cc(/C=C/C(=O)C2=C(/C=C/c3ccc(O)c(OC)c3)NC(=O)NC2c2ccccc2)ccc1O (stereo not drawn): 11
- COc1cc(/C=C/C(=O)CC(=O)/C=C/c2ccc(O)c(OC)c2)ccc1O [CURCUMIN]: 12
- COc1cc(/C=C/C(=O)C2=C(/C=C/c3ccc(O)c(OC)c3)NC(=O)NC2c2ccc([N+](=O)[O-])cc2)ccc1O (stereo not drawn): 10
- COc1cc(/C=C/C(=O)C2=C(/C=C/c3ccc(O)c(OC)c3)NC(=O)NC2c2ccc(C)cc2)ccc1O (stereo not drawn): 11

* * *

Test system: Escherichia coli
protocol: Antibacterial activity against Escherichia coli ATCC 35218 at 80 uM/ml after 24 hrs by kirby-bauer method
Assay type: functional
study.conditions: ATCC 35218, 24 h, read-out: IZ
experimental.endpoint: zone of inhibition at 80 µM (mm)

• COc1cc(/C=C/C(=O)C2=C(/C=C/c3ccc(O)c(OC)c3)NC(=O)NC2c2ccc(O)cc2)ccc1O (centres undefined) = 18
• COc1ccc(C2NC(=S)NC(/C=C/c3ccc(O)c(OC)c3)=C2C(=O)/C=C/c2ccc(O)c(OC)c2)cc1 (centres undefined) = 14
• COc1cc(/C=C/C(=O)C2=C(/C=C/c3ccc(O)c(OC)c3)NC(=S)NC2c2ccccc2)ccc1O (centres undefined) = 18
• COc1cc(/C=C/C(=O)CC(=O)/C=C/c2ccc(O)c(OC)c2)ccc1O = 8

* * *

System: Staphylococcus aureus
protocol: Antibacterial activity against Staphylococcus aureus ATCC 11632 at 80 uM/ml after 24 hrs by kirby-bauer method
Type: functional
study.conditions: ATCC 11632, 24 h, read-out: IZ
Rule: zone of inhibition at 80 µM under 10 mm gives N, otherwise Y.

* COc1cc(/C=C/C(=O)C2=C(/C=C/c3ccc(O)c(OC)c3)NC(=O)NC2c2ccc(O)cc2)ccc1O (centres undefined) | Y
* COc1cc(/C=C/C(=O)C2=C(/C=C/c3ccc(O)c(OC)c3)NC(=S)NC2c2ccc(Cl)cc2)ccc1O (centres undefined) | Y
* COc1cc(/C=C/C(=O)C2=C(/C=C/c3ccc(O)c(OC)c3)NC(=S)NC2c2ccc(O)c(OC)c2)ccc1O (centres undefined) | N
* COc1cc(/C=C/C(=O)C2=C(/C=C/c3ccc(O)c(OC)c3)NC(=O)NC2c2ccccc2)ccc1O (centres undefined) | Y
* CC1(C)S[C@@H]2[C@H](NC(=O)[C@H](N)c3ccccc3)C(=O)N2[C@H]1C(=O)O [AMPICILLIN] | Y

* * *

Tested on: Pseudomonas aeruginosa
protocol: Antibacterial activity against Pseudomonas aeruginosa ATCC 15499 at 40 uM/ml after 24 hrs by kirby-bauer method
Type: functional
The source made the active and inactive calls. No cut-off for these calls is given here.
experimental.endpoint: inhibition zone (IZ)

- COc1cc(/C=C/C(=O)C2=C(/C=C/c3ccc(O)c(OC)c3)NC(=S)NC2c2ccc([N+](=O)[O-])cc2)ccc1O (centres undefined): inactive
- COc1cc(/C=C/C(=O)C2=C(/C=C/c3ccc(O)c(OC)c3)NC(=O)NC2c2ccc(C)cc2)ccc1O (centres undefined): inactive
- COc1cc(/C=C/C(=O)C2=C(/C=C/c3ccc(O)c(OC)c3)NC(=O)NC2c2ccc(Cl)cc2)ccc1O (centres undefined): inactive
- COc1cc(/C=C/C(=O)CC(=O)/C=C/c2ccc(O)c(OC)c2)ccc1O [CURCUMIN]: inactive

* * *

Test system: Salmonella typhimurium
protocol: Antibacterial activity against Salmonella typhimurium ATCC 23564 at 160 uM/ml after 24 hrs by kirby-bauer method
Type: functional, Salmonella enterica subsp. enterica serovar Typhimurium
study.conditions: Salmonella enterica, ATCC 23564, 24 h; read-out: IZ
zone of inhibition at 160 µM values for the compounds below.
experimental.endpoint: zone of inhibition at 160 µM

* CC1(C)S[C@@H]2[C@H](NC(=O)[C@H](N)c3ccccc3)C(=O)N2[C@H]1C(=O)O | 51 mm
* COc1cc(/C=C/C(=O)C2=C(/C=C/c3ccc(O)c(OC)c3)NC(=O)NC2c2ccc(O)cc2)ccc1O (stereo not drawn) | 18 mm
* COc1cc(/C=C/C(=O)C2=C(/C=C/c3ccc(O)c(OC)c3)NC(=S)NC2c2ccc([N+](=O)[O-])cc2)ccc1O (stereo not drawn) | 10 mm

* * *

Here the recorded zone of inhibition at 80 µM is given for each entry.
Tested on: Curvularia lunata
protocol: Antifungal activity against Curvularia lunata MTCC 581 at 80 uM/ml after 48 hrs by paper disc diffusion method
Assay type: functional
study.conditions: MTCC 581, 48 h, read-out: IZ
experimental.endpoint: zone of inhibition at 80 µM (mm)

• COc1cc(/C=C/C(=O)C2=C(/C=C/c3ccc(O)c(OC)c3)NC(=O)NC2c2ccc(O)c(OC)c2)ccc1O (centres undefined) = 18
• COc1cc(/C=C/C(=O)C2=C(/C=C/c3ccc(O)c(OC)c3)NC(=O)NC2c2ccccc2)ccc1O (centres undefined) = 12
• COc1ccc(C2NC(=S)NC(/C=C/c3ccc(O)c(OC)c3)=C2C(=O)/C=C/c2ccc(O)c(OC)c2)cc1 (centres undefined) = 21
• COc1cc(/C=C/C(=O)C2=C(/C=C/c3ccc(O)c(OC)c3)NC(=O)NC2c2ccc([N+](=O)[O-])cc2)ccc1O (centres undefined) = 9

Cited source: ChEMBL document CHEMBL2016493
